# Test system: EGFR;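 further: KINOMEscan scanMAX binding as percent activity remaining versus control; lower means stronger binding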
# SETTINGS: Compound Concentration (nM):1000
For each record, write down the corresponding Percent Control.
# unit: % | format: bare number

Look up Percent Control for this compound: Cl.c1ccc(Cc2nc3ccc(Nc4ncnc5ccccc45)cc3[nH]2)cc1 [GR269666A]
5

Please do the same for COc1cc(C)c(N(C)C(=O)CN(C)C)cc1Nc1nc(Nc2cccc(F)c2C(N)=O)c2cc[nH]c2n1 as well.
87

Next up: NS(=O)(=O)c1ccc(N/N=C2\C(=O)Nc3ccc(Cl)cc32)cc1 [GW280670X]
100

Queued: COC(=O)Nc1nc2ccc(Oc3ccc(NC(=O)Nc4cc(C(F)(F)F)ccc4F)cc3)cc2s1.Cl [GW693917A]
90

Then CCc1ccc(Oc2nccc(-c3c(-c4ccc(F)cc4)ncn3C3CCNCC3)n2)cc1 ?
48

Could you do the same for COc1ccc(COc2ccc(Cc3cnc(N)nc3N)cc2OC)cc1 [GW632580X] , please?
92

Request: COc1cc2ncn(-c3cc(O[C@H](C)c4ccccc4Cl)c(C(N)=O)s3)c2cc1OC [GSK237701A]
100

What would you report for O=C1Nc2ccc(C(=O)c3ccco3)cc2C1=Cc1cc(Cl)c(O)c(Cl)c1 [GW406108X] ?
100

Next entry: NS(=O)(=O)c1ccc(N/N=C2\C(=O)Nc3ccc(C(=O)NCc4ccncc4)cc32)cc1 [GW300657X]
93

And what about the compound NS(=O)(=O)c1ccc(Nc2ncc(-c3ccccc3)o2)cc1 [GW572399X] ?
88

Entry to check: Cl.O=C(Nc1ccc(Oc2ccc3[nH]c(NC(=O)c4ccccc4)nc3c2)cc1)Nc1cc(C(F)(F)F)ccc1F [GW709042A]
100

And the next one, COc1cc(N2CCN(C(C)C)CC2)ccc1Nc1nc(Nc2ccc(F)cc2C(=O)NC[C@@H](O)CO)c2cc[nH]c2n1 [GSK1392956A] ?
76

Entry to check: COc1cc(C=NNc2ncnc3c2cnn3-c2ccccc2)ccc1O [GW513184X]
100

Moving on to CC(C)COC(=O)c1ccc2c(c1)/C(=C/Nc1ccc(S(N)(=O)=O)cc1)C(=O)N2 [GW416981X]
13
